test system: L1210 leukemia ip in BDF1 mice, survival T/C; experiment: NCI In Vivo Anticancer Drug Screen. Data for tumor model L1210 Leukemia (intraperitoneal) in B6D2F1 (BDF1) mice; conditions: endpoint: mean survival time; dose: 200.0 mg/kg/injection; schedule: Q04DX003 (ip); vehicle: saline with Tween-80; higher = longer survival
Inconclusive results and toxic doses are left out.
Readout Type: T/C

# annotated cases, reported T/C shown
Compound	Experimental System	T/C
O=C(O)Cn1cnc2cncnc21	L1210 leukemia ip in BDF1 mice, survival T/C	104 % of control
CCn1nnc2c(=O)[nH]c(N)nc21	L1210 leukemia ip in BDF1 mice, survival T/C	104 % of control
CN(C)c1cc2c(cc1[N+](=O)[O-])-c1ccccc1C2=O	L1210 leukemia ip in BDF1 mice, survival T/C	100 % of control

Enquiry: // query T/C value for entry CC(=O)NC(CSCc1c2ccccc2c(C)c2ccccc12)C(=O)O (configuration not stated)
Return: 96 % of control

Enquiry: Form field: reported T/C of CC1CC/C(=N\N(C)C)c2ccccc21 (configuration not stated)
Return: 103 % of control
